Test system: HL-1
testProtocol: relative cell viability (CellTiter-Glo) vs DMSO control (% of DMSO control); higher = more viable cells
conditionSummary: oxygen condition: normoxia 72 h; 5000 nM
Structures can show the parent of a compound that is named as a salt.
reportedProperty: relative cell viability
# respond with the number and nothing more

[[record]]
compound = "CC[C@H](C)[C@H](N)C1=N[C@H](C(=O)N[C@@H](CC(C)C)C(=O)N[C@H](CCC(=O)[O-])C(=O)N[C@H](C(=O)N[C@H]2CCCCNC(=O)[C@H](CC(N)=O)NC(=O)[C@@H](CC(=O)[O-])NC(=O)[C@H](Cc3cnc[nH]3)NC(=O)[C@@H](Cc3ccccc3)NC(=O)[C@H]([C@@H](C)CC)NC(=O)[C@@H](CCCN)NC2=O)[C@@H](C)CC)CS1.[Zn+2]"
reportedproperty = "relative cell viability"
measvalue = 117


Query CC[C@@H](CO)NCCN[C@@H](CC)CO [Ethambutol HCl] yields relative cell viability of 3.47
